Data origin: the supplement of paper PMC8149375

# System: ACHN
# assay_comment: GI50, drug alone; higher = less potent
# condition_summary: treatment: drug alone; 5 days
assay_metric: GI50, drug alone (nM)
Give the value in nM but do not write nM after it.

Please review the entries below; each comes with its answer.
compound	GI50, drug alone (nM)
O=c1[nH]c2ccc(Cl)cc2c(N[C@@H]2CN3CCC2CC3)c1-c1nc2ccccc2[nH]1 [CHIR-124]	40.3
CN(C[C@@H]1COCCO1)S(=O)(=O)Nc1ccc2ccc3ncc(-c4cnn(C)c4)cc3c(=O)c2c1 [MK-2461]	1720

Query: GI50, drug alone; subject: N#C/C(=C\c1ccc(O)c(O)c1)C(=O)NCc1ccccc1 [AG-490]
7430

Query: GI50, drug alone; subject: `CC(C)(C)c1nc(-c2cccc(NS(=O)(=O)c3c(F)cccc3F)c2F)c(-c2ccnc(N)n2)s1`
381

Query: GI50, drug alone; subject: `CCc1cc2c(cc1N1CCC(N3CCOCC3)CC1)C(C)(C)c1[nH]c3cc(C#N)ccc3c1C2=O`
5470

Query: GI50, drug alone; subject: `Cc1[nH]c(/C=C2\C(=O)Nc3ccc(S(=O)(=O)Cc4c(Cl)cccc4Cl)cc32)c(C)c1C(=O)N1CCC[C@@H]1CN1CCCC1`
3830

Query: GI50, drug alone; subject: CNC(=O)c1cccc(-c2ccc3c(N4CCOC[C@@H]4C)nc(N4CCOC[C@@H]4C)nc3n2)c1 [AZD2014]
120

---

# Tested on: ACHN
# assay_comment: GI50, drug alone; higher = less potent
# condition_summary: treatment: drug alone; 5 days
Categories are defined by ranges of GI50, drug alone, namely low-valued = under 0.7 µM, mid-valued = from 0.7 µM up to 4 µM, high-valued = 4 µM and over

molecule	answer_label
CCc1cc(Nc2nccc(-c3c(-c4ccc(OC)c(C(=O)Nc5c(F)cccc5F)c4)nc4ccccn34)n2)c(OC)cc1N1CCC(N2CCN(S(C)(=O)=O)CC2)CC1	high-valued
O=C(Nc1cccc(Nc2ncc(Br)c(NCCc3cnc[nH]3)n2)c1)N1CCCC1 [BX-912]	high-valued
COC(=O)c1ccc2c(c1)NC(=O)/C2=C(\Nc1ccc(N(C)C(=O)CN2CCN(C)CC2)cc1)c1ccccc1 [BIBF1120 (Vargatef)]	mid-valued

Record `Cc1cc2c(F)c(Oc3ncnn4cc(OC[C@@H](C)OC(=O)[C@H](C)N)c(C)c34)ccc2[nH]1` — which class?
high-valued

Record C[C@H](NC(=O)/C(C#N)=C/c1cccc(Br)n1)c1ccccc1 [WP1066] — which class?
high-valued

Record `Cc1ccc(NC(=O)c2cccc(N(C)C)c2)cc1NC(=O)c1ccc(O)cc1` — which class?
high-valued

Record `CCn1c(-c2nonc2N)nc2c(C#CC(C)(C)O)ncc(OC[C@H]3CCCNC3)c21` — which class?
high-valued

Record `CCN(CC)CCCCNc1ncc2cc(-c3cc(OC)cc(OC)c3)c(NC(=O)NC(C)(C)C)nc2n1` — which class?
mid-valued

Record CC(C)(O)CC(=O)NCCn1ccc2ncnc(Nc3ccc(Oc4cccc(C(F)(F)F)c4)c(Cl)c3)c21 [TAK-285] — which class?
high-valued

Record `Nc1ccc(C(=O)Nc2cccc(-c3nc(N4CCOCC4)c4oc5ncccc5c4n3)c2)cn1` — which class?
mid-valued

Record Cc1csc(-c2nnc(Nc3ccc(Oc4ncccc4-c4ccnc(N)n4)cc3)c3ccccc23)c1 [AMG 900] — which class?
low-valued

Record `COc1ccc(-c2cc3c(C)nc(N)nc3n([C@H]3CC[C@H](OCCO)CC3)c2=O)cn1` — which class?
low-valued
